# System: C2C12 myotubes
# condition context: Conc 20 μM; normalized score vs mock-treated (DMSO) wells
experimental readout: Viability (composite Z-score)
When you answer, write just the number.

The compound C[C@@H]1O[C@@H](O[C@H]2[C@H](O[C@H]3CC[C@@]4(C)[C@@H](CC[C@]5(C)[C@@H]4CC=C4[C@@H]6CC(C)(C)CC[C@]6(C(=O)O[C@@H]6O[C@H](CO[C@@H]7O[C@H](CO)[C@@H](O[C@@H]8O[C@@H](C)[C@H](O)[C@@H](O)[C@H]8O)[C@H](O)[C@H]7O)[C@@H](O)[C@H](O)[C@H]6O)CC[C@]45C)[C@]3(C)CO)OC[C@H](O)[C@@H]2O)[C@H](O)[C@H](O)[C@H]1O [hederacoside C] on C2C12 myotubes: Viability (composite Z-score) was −0.672

Per the reported C2C12 myotubes data, COc1cc(OC)c2c(=O)cc(-c3ccccc3)oc2c1 has Viability (composite Z-score) of −0.006

Value sought: Viability (composite Z-score), system C2C12 myotubes, item COc1cc2c3cc1Oc1cc(ccc1O)CC1c4c(cc(OC)c(O)c4Oc4ccc(cc4)CC3N(C)CC2)CCN1C (stereo not shown) . Result: −0.728
